# TESTED SYSTEM: BRG-1 (Homo sapiens, UniProt P51532)
# Sequence (P51532 whole entry): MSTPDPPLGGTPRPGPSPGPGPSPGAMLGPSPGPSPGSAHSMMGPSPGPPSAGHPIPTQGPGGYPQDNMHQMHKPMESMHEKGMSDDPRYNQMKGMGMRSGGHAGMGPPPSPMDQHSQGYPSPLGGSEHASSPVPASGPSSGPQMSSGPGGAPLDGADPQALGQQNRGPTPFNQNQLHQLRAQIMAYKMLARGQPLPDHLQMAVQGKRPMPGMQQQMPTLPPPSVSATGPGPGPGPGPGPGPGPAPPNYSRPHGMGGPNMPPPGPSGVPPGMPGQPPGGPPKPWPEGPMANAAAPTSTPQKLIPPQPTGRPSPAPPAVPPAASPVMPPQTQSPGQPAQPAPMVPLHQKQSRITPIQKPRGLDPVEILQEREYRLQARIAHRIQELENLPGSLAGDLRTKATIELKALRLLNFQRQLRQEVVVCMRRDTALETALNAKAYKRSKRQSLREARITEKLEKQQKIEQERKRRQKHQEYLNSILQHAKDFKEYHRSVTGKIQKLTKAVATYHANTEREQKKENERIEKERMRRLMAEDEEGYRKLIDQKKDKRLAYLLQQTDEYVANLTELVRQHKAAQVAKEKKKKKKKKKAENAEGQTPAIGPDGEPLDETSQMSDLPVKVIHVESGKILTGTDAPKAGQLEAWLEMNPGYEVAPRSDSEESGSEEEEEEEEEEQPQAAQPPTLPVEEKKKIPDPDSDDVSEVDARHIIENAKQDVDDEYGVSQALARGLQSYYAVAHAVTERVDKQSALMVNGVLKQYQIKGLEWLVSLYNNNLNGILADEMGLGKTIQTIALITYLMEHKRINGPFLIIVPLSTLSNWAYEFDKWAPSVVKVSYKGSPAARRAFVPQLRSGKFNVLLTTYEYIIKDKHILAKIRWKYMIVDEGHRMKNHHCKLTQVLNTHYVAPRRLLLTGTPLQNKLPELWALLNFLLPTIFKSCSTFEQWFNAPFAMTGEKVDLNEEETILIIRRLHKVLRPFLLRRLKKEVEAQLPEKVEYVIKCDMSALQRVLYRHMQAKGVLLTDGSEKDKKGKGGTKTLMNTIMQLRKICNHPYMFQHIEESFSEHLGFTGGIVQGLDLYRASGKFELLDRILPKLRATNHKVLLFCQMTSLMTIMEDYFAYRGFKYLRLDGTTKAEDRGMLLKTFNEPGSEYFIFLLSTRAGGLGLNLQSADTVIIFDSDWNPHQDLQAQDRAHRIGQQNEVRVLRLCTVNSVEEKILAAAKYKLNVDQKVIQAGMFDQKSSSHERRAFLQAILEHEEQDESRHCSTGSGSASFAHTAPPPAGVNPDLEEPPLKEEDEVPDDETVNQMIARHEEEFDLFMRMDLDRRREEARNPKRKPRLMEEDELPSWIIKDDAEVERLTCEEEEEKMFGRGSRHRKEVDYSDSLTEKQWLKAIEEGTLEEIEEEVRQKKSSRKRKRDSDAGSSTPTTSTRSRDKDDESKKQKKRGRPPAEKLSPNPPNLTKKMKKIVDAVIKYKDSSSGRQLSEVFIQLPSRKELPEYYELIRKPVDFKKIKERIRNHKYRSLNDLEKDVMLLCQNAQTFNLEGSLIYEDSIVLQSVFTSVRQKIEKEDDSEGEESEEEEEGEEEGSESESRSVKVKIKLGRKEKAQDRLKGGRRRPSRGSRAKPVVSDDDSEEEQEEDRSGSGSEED
# PROCEDURE DETAILS: ATPase catalytic activity assay of BRG-1 (ADP-Glo)
# Type: biochemical
# DETAILS: ATPase catalytic activity, ADP-Glo; read-out: BRG1 IC50 (μM)*
QUANTITY: IC50

Past entries and their recorded results:
{"COMPOUND": "CC(C)S(=O)(=O)c1cccc(C(=O)NCC(=O)Nc2nc(-c3cccc(-c4cccc(C#N)n4)n3)cs2)c1", "IC50": "> 5 µM"}
{"COMPOUND": "C[C@@H]1CN(c2cccc(-c3csc(NC(=O)CNC(=O)c4cccc(C(C)(C)CN)c4)n3)c2)C[C@H](C)O1", "IC50": "0.1 to 1 µM"}
{"COMPOUND": "C[C@@]1(C#N)COCc2ccc(C(=O)NC3(C(=O)Nc4nc(-c5cccc(C(F)F)c5)cs4)CC3)cc21", "IC50": "1 to 5 µM"}
{"COMPOUND": "C[C@@H]1CN(c2cccc(-c3csc(NC(=O)CNC(=O)c4cccc([C@]5(F)C[C@H](F)C5)c4)n3)n2)C[C@H](C)O1", "IC50": "0.1 to 1 µM"}
{"COMPOUND": "C[C@@H]1CN(c2cccc(-c3csc(NC(=O)CNC(=O)c4cccc([C@@]5(C(F)F)CCOC5)c4)n3)c2)C[C@H](C)O1", "IC50": "1 to 5 µM"}
{"COMPOUND": "C[C@@H]1CN(c2cccc(-c3csc(NC(=O)CNC(=O)c4ccc5c(c4)[C@](C)(CO)CO5)n3)n2)C[C@H](C)O1 (single isomer, unassigned)", "IC50": "> 5 µM"}
{"COMPOUND": "Cc1ccc(C(=O)NCC(=O)Nc2nc(-c3cccc(-c4ccn(C)n4)c3)cs2)cc1S(=O)(=O)C(C)C", "IC50": "1 to 5 µM"}
{"COMPOUND": "C[C@@H]1CN(c2cccc(-c3csc(NC(=O)CNC(=O)c4cc(C(C)(C)CO)ccc4F)n3)n2)C[C@H](C)O1", "IC50": "1 to 5 µM"}
{"COMPOUND": "C[C@@H]1CN(c2cccc(-c3csc(NC(=O)CNC(=O)c4ccc5c(c4)C(F)(F)COC5)n3)n2)C[C@H](C)O1", "IC50": "0.1 to 1 µM"}
{"COMPOUND": "CN1C[C@](C)(C#N)c2cc(C(=O)NCC(=O)Nc3nc(-c4cc(F)cc(N5CCC5)c4)cs3)ccc21", "IC50": "> 5 µM"}

Next compound, IC50 to be filled in.
**Query** Return reported IC50; argument: C[C@H](NC(=O)c1cccc(C(C)(C)CN)c1)C(=O)Nc1nc(-c2cccc(-c3ccncc3)c2)cs1
**Result** 0.1 to 1 µM

* * *

Readings of IC50 for the listed compounds
# TESTED SYSTEM: BRG-1 (Homo sapiens, UniProt P51532)
# PROCEDURE DETAILS: ATPase catalytic activity assay of BRG-1 (ADP-Glo)
# Type: biochemical
# DETAILS: ATPase catalytic activity, ADP-Glo; read-out: BRG1 IC50 (μM)*

{"COMPOUND": "Cc1cc(-c2cccc(-c3csc(NC(=O)CNC(=O)c4ccc(C)c(C(C)(C)CN)c4)n3)c2)cc(C)n1", "QUANTITY": "IC50", "MEASURED": "0.1 to 1 µM"}

**Query** Fill in the blank: the reported IC50 of C[C@@H]1CN(c2cccc(-c3csc(NC(=O)CNC(=O)c4ccc5c(c4)[C@@]4(CCO4)COC5)n3)n2)C[C@H](C)O1 is ____.
**Result** 1 to 5 µM

**Query** Return reported IC50; argument: C[C@H](CO)S(=O)(=O)c1cccc(C(=O)NCC(=O)Nc2nc(-c3cccc(-c4ccncc4)c3)cs2)c1
**Result** 1 to 5 µM
